The measurements presented in this section are drawn from patent US20230146675A1.

# Target Under Test: Human phosphodiesterase-4A1A (Homo sapiens, UniProt P27815)
# Sequence (P27815 1-647 isoform P27815-4): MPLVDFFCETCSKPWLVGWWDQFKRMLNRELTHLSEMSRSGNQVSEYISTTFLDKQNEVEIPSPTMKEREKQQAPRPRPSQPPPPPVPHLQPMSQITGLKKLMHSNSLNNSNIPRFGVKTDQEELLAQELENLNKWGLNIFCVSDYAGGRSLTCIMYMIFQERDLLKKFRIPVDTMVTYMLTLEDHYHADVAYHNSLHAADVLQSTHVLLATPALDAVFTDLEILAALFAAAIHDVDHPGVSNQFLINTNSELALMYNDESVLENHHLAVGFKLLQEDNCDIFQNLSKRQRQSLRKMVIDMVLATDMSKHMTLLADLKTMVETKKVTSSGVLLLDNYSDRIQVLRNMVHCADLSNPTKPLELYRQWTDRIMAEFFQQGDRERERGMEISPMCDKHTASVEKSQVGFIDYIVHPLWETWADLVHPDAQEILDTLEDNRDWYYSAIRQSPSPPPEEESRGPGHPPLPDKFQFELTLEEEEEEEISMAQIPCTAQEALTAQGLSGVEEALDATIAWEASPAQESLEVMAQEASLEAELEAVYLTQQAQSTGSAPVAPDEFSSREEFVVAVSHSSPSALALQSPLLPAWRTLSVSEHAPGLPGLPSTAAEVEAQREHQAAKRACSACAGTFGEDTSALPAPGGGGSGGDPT
pIC50: −log10 of the molar value.

- Molecule: "COCCN(CCOC)c1nc(N2CCN(C)C(=O)C2)c2nc(N(CCOC)CCOC)nc(N3CCC(OC)CC3)c2n1 [Compound 72]"
  pIC50: "< 5.00"

###

Readings of pIC50 for the listed compounds
# Target Under Test: human ENT1 (Homo sapiens)
# Sequence (Q99808 1-456): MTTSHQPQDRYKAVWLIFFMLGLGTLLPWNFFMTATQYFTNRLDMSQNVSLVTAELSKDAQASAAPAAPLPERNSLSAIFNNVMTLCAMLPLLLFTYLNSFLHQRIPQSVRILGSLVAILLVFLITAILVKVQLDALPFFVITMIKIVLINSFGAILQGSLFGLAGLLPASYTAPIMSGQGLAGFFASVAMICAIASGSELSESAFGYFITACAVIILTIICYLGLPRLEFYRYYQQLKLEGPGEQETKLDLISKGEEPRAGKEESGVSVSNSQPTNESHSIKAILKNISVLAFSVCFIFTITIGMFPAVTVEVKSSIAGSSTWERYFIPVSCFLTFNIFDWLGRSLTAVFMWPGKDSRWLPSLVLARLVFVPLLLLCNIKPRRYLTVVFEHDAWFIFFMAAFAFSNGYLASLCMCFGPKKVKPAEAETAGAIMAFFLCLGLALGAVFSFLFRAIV
# Assay Method Text: ENT1 binding assay (competition with Sahenta-DY647 on JAR cells)
# Set-up: JAR cells expressing ENT1 were bought from ATCC; host or cells: JAR cells
# Measurement Parameters: binned IC50
pIC50: −log10 of the molar value.
Property: pIC50

- Molecule Smiles: "COCCN(CCOC)c1nc(N2CCC(OC)CC2)c2nc(N(CCOC)CCOC)nc(NCc3cnccn3)c2n1"
  Result: "6.00 to 6.30"
- Molecule Smiles: "CCN(CCN1CCCC1)c1nc(N2CCN(C)C(=O)C2)c2nc(N(CCOC)CCOC)nc(N3CCC(OC)CC3)c2n1"
  Result: "6.30 to 7.00"
- Molecule Smiles: "COCCN(CCOC)c1nc(N2CCC(OC)CC2)c2nc(N(CCOC)CCOC)nc(N3CCCOCC3)c2n1"
  Result: "> 7.00"
- Molecule Smiles: "COCCN(CCOC)c1nc(N2CCC(OC)CC2)c2nc(N(CCOC)CCOC)nc(N(C)CCO)c2n1"
  Result: "6.30 to 7.00"
- Molecule Smiles: "COCCN(CCOC)c1nc(N2CCC(OC)CC2)c2nc(N(CCOC)CCOC)nc(OCc3cncc(C#N)c3)c2n1"
  Result: "6.30 to 7.00"
- Molecule Smiles: "COCCN(CCOC)c1nc(N2CCn3ncnc3C2)c2nc(N(CCOC)CCOC)nc(N3CCS(=O)(=O)CC3)c2n1"
  Result: "6.30 to 7.00"
- Molecule Smiles: "COCCN(Cc1ccc(OC)c(OC)c1OC)c1nc(N2CCN(C)C(=O)C2)c2nc(N(CCOC)CCOC)nc(N3CCC(OC)CC3)c2n1"
  Result: "> 7.00"
- Molecule Smiles: "COCCN(CCOC)c1nc(NCc2cccc(F)c2)c2nc(N(CCO)CCO)nc(N3CCC(OC)CC3)c2n1"
  Result: "> 7.00"
- Molecule Smiles: "COCCN(CCOC)c1nc(N2CCN(c3ncn(C)n3)CC2)c2nc(N(CCOC)CCOC)nc(NCc3cccc(F)c3)c2n1"
  Result: "> 7.00"
- Molecule Smiles: "COCCN(CCOC)c1nc(N2CCC(OC)CC2)c2nc(N(CCOC)CCOC)nc(NCc3cccc(-n4cccn4)c3)c2n1"
  Result: "6.30 to 7.00"
- Molecule Smiles: "COCCN(CCOC)c1nc(N2CCC(C(N)=O)CC2)c2nc(N(CCOC)CCOC)nc(N3CCC(OC)CC3)c2n1"
  Result: "6.30 to 7.00"
- Molecule Smiles: "COCCN(CCOC)c1nc(N2CCC(OC)CC2)c2nc(N(CCOC)CCOC)nc(NCc3cccc(OC(F)F)c3)c2n1"
  Result: "6.30 to 7.00"
- Molecule Smiles: "COCCN(Cc1ccc(C(=O)O)cc1)c1nc(N2CCN(C)C(=O)C2)c2nc(N(CCOC)CCOC)nc(N3CCC(OC)CC3)c2n1"
  Result: "6.00 to 6.30"
- Molecule Smiles: "COCCN(CCOC)c1nc(N2CC(=O)N(C)C(=O)C2)c2nc(N(CCO)CCO)nc(N3CCC(OC)CC3)c2n1"
  Result: "> 7.00"
